# Target or system: human inducible NOS (hiNOS) (Homo sapiens, UniProt P35228)
# Protocol description: IC50 determination, hiNOS
# Assay type: biochemical
# Stated conditions: ratio of IC50 hiNOS to IC50 bNOS WT
The label is rule met for isoform selectivity hiNOS/bNOS (in parentheses) below 10 and rule not met for isoform selectivity hiNOS/bNOS (in parentheses) equal to or exceeding 10.

Solved entries (count: 5):
{"columns": ["Smiles", "Class"],
 "data": [
  ["Nc1cccc(CCc2cccc(OCc3ccc4ccc(N)nc4c3)c2)n1", "rule not met"],
  ["Nc1ccc2ccc(COc3cccc(CNCc4ccccn4)c3)cc2n1", "rule met"],
  ["Nc1ccc2ccc(COc3cccc(CNCCc4ccccn4)c3)cc2n1", "rule not met"],
  ["Nc1cccc(CNCCOc2cccc(OCc3ccc4ccc(N)nc4c3)c2)n1", "rule not met"],
  ["Nc1cccc(CCCCNCc2cccc(OCc3ccc4ccc(N)nc4c3)c2)n1", "rule met"]
]}

In the record for `Nc1cccc(CNCc2cccc(OCc3ccc4ccc(N)nc4c3)c2)n1` , is isoform selectivity hiNOS/bNOS (in parentheses) less than 10? rule not met

---

# Target or system: bNOS (I218V) (Bacillus subtilis, UniProt O34453, I218V)
# Sequence (O34453 other isoform, or with tags, fused parts or gaps I218V): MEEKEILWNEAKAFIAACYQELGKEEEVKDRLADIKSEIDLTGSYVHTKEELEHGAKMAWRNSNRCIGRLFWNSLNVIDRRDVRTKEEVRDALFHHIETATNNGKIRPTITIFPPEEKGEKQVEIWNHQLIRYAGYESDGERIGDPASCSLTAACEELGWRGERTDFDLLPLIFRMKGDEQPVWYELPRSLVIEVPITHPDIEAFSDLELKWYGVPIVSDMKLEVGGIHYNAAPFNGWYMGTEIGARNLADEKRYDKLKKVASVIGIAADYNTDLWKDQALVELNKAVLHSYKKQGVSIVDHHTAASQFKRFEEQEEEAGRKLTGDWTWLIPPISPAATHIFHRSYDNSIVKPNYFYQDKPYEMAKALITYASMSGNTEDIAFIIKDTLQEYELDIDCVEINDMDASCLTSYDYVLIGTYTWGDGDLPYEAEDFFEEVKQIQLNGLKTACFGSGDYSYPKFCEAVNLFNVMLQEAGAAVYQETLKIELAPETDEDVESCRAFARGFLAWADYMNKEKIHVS
# Protocol description: IC50 determination with bBidomain construct, bNOS I218V
Readout: log10(IC50) (log10 of the value in µM)
A difference of one corresponds to tenfold IC50; all values are log10 with IC50 in µM.

Read off the recorded log10(IC50) for `Nc1cccc(CNCCOc2cccc(OCc3ccc4ccc(N)nc4c3)c2)n1` 2.36

Output log10(IC50) of `Nc1cccc(CCCCNCc2cccc(OCc3ccc4ccc(N)nc4c3)c2)n1` 0.96

---

# Target or system: bNOS WT (bsNOS) (Bacillus subtilis)
# Sequence (O34453 whole entry): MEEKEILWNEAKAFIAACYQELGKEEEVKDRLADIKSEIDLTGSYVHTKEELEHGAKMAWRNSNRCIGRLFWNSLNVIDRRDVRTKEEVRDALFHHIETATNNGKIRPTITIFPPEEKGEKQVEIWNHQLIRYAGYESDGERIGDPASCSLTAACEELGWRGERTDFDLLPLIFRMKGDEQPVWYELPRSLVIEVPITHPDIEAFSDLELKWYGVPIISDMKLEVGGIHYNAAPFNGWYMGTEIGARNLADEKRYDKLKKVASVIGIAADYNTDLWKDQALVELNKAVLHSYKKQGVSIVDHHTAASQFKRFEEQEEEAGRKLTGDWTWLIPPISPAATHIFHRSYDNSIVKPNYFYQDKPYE
Kindly apply the following: 1 (yes) if Kd is less than 6 µM, 0 (no) in every other case.

Sample answers from the record:
{"columns": ["Molecule", "Class"],
 "data": [
  ["Nc1cccc(CCc2cccc(OCc3ccc4ccc(N)nc4c3)c2)n1 [Compound 3]", "0 (no)"],
  ["Nc1ccc2ccc(COc3cccc(CNCc4ccccn4)c3)cc2n1 [Compound 4]", "0 (no)"],
  ["Nc1ccc2ccc(COc3cccc(CNCCc4ccccn4)c3)cc2n1 [Compound 6]", "0 (no)"],
  ["Nc1cccc(CNCc2cccc(OCc3ccc4ccc(N)nc4c3)c2)n1 [Compound 5]", "1 (yes)"],
  ["Nc1cccc(CNCCOc2cccc(OCc3ccc4ccc(N)nc4c3)c2)n1 [Compound 9]", "1 (yes)"]
]}

Regarding Nc1cccc(CCCCNCc2cccc(OCc3ccc4ccc(N)nc4c3)c2)n1 [Compound 8] , kindly confirm whether its Kd is beneath 6 µM. 0 (no)

---

Observed IC50 values for human inducible NOS (hiNOS) (Homo sapiens, UniProt P35228) are listed in what follows.
Kindly provide the numeric value in µM only, without the unit symbol.

For orientation, consider the following solved cases.
{"columns": ["Smiles", "IC50, µM"],
 "data": [
  ["Nc1cccc(CNCc2cccc(OCc3ccc4ccc(N)nc4c3)c2)n1", 318],
  ["Nc1cccc(CCCCNCc2cccc(OCc3ccc4ccc(N)nc4c3)c2)n1", 24],
  ["Nc1ccc2ccc(COc3cccc(CNCCc4ccccn4)c3)cc2n1", 396]
]}

Retrieve IC50 on human inducible NOS (hiNOS) (Homo sapiens, UniProt P35228); query `Nc1ccc2ccc(COc3cccc(CNCc4ccccn4)c3)cc2n1` 143

Write IC50 of `Nc1cccc(CCc2cccc(OCc3ccc4ccc(N)nc4c3)c2)n1` ; system used: human inducible NOS (hiNOS) (Homo sapiens, UniProt P35228) 435

Output reported IC50 of the compound `Nc1cccc(CNCCOc2cccc(OCc3ccc4ccc(N)nc4c3)c2)n1` on human inducible NOS (hiNOS) (Homo sapiens, UniProt P35228). 350
